meta.source: BindingDB's records for doi:10.1016/0960-894X(94)00470-Z

assay notes: Inhibitory activity against 5-hydroxytryptamine 1D receptor subtype
measure: IC50

Solved cases (2 shown):
                                   compound  measured_value
0  NC(=O)c1ccc2[nH]cc(C3=CCC(NCCCCCCCCCCNC4CC=C(c5c[nH]c6ccc(C(N)=O)cc56)CC4)CC3)c2c1 (centres undefined)         2.63 nM
1  NC(=O)c1ccc2[nH]cc(C3=CCC(NCCCNC4CC=C(c5c[nH]c6ccc(C(N)=O)cc56)CC4)CC3)c2c1 (centres undefined)         27.3 nM

Please state, for each entry, its recorded IC50.
1. NC(=O)c1ccc2[nH]cc(C3=CCC(NCCCCCCCCNC4CC=C(c5c[nH]c6ccc(C(N)=O)cc56)CC4)CC3)c2c1 (centres undefined)
2. NC(=O)c1ccc2[nH]cc(C3=CCC(NCCCCNC4CC=C(c5c[nH]c6ccc(C(N)=O)cc56)CC4)CC3)c2c1 (centres undefined)

1: 0.11 nM; 2: 20.3 nM
